src = patent US20230235047A1

# target_or_test_system: T1, human Claudin18.2 protein (P50251802, GenScript) (human, UniProt P56856-2 1-261, limits assumed)
# T1 construct: also called human CLDN18.2
# protocol_summary: SPR (Biacore T200), human Claudin18.2 amine-coupled to the chip, antibody 0-100 nM in the mobile phase, 1:1 model

| binder | result_unit | kon |
| --- | --- | --- |
| Hz3G3 (antibody, human IgG1, kappa, V domains shown) VH: QVQLVQSGAEVKKPGASVKVSCKASGYSFTTYWMHWVRQAPGQGLEWMGLIDPSDSETRLNQKFKDRVTMTVDTSTSTVYMELSSLRSEDTAVYYCASNRWLLGWGQGTLVTVSS VL: DIVMTQSPDSLAVSLGERATINCKSSQSLLNSGNQKNYLTWYQQKPGQPPKLLIYWASTRESGVPDRFSGSGSGTDFTLTISSLQAEDVAVYYCQNDYSYPLTFGQGTKLEIKR | M⁻¹ s⁻¹ | 56500 |
| Hz69H9 (antibody, human IgG1, kappa, V domains shown) VH: QVQLVQSGAEVKKPGSSVKVSCKASGYSFSSYNIHWVRQAPGQGLEWMGYIAPFQGDSRYNQKFKGRVTITADKSTSTAYMELSSLRSEDTAVYYCARLNRGNSLDYWGQGTLVTVSS VL: DIVMTQSPDSLAVSLGERATINCKSSQSLFNSGNQRNYLTWYQQKPGQPPKLLIYWASTRESGVPDRFSGSGSGTDFTLTISSLQAEDVAVYYCQNNYIYPLTFGGGTKVEIKR | M⁻¹ s⁻¹ | 387000 |
| Hz25C7 (antibody, human IgG1, kappa, V domains shown) VH: EVQLVESGGGLVQPGGSLRLSCAASGFTFSDYGMAWVRQAPGKGLEWVAFINNLAYSIYYVDTVTGRFTISRDNAKNSLYLQMNSLRAEDTAVYYCARFTTGNVMDYWGQGTLVTVSS VL: DIVMTQSPDSLAVSLGERATINCKSSQSLLQGGNQKNYLTWYQQKPGQPPKLLIYWSSTRESGVPDRFSGSGSGTDFTLTISSLQAEDVAVYYCQNSYSYPLTFGGGTKVEIKR | M⁻¹ s⁻¹ | 116000 |
| Hz38F8 (antibody, human IgG1, kappa, V domains shown) VH: EVQLVESGGGLVQPGGSLRLSCAASGFSFSDYGMHWVRQAPGKGLEWVSYINSGSRTLYYADTVKGRFTISRDNAKNSLYLQMNSLRDEDTAVYYCARNAYYGNAMDYWGQGTLVTVSS VL: DIVMTQSPDSLAVSLGERATINCKSSQSLLNSGNQRNYLTWYQQKPGQPPKLLIYWSSTRGSGVPDRFSGSGSGTDFTLTISSLQAEDVAVYYCQNVYYYPFTFGQGTRLEIKR | M⁻¹ s⁻¹ | 318000 |
